Origin of measurements: paper PMC9352680

Molecular target: T1, PUF4 RNA-binding domain (Saccharomyces cerevisiae, UniProt P25339 537-888)
T1 sequence: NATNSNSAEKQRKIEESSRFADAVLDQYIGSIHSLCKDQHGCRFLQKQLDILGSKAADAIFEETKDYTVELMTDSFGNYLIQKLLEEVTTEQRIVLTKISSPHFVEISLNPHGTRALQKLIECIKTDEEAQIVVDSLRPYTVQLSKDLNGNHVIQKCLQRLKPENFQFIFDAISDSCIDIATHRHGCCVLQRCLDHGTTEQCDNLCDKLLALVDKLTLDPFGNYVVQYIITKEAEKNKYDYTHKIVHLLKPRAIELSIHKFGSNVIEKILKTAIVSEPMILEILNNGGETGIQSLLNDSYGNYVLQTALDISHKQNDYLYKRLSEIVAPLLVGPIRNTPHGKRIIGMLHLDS
Test: Mg; RNA-MaP; 20 mM Na-HEPES pH 7.4, 30 mM KOAc, 0.75 mM MgCl2, 0.1% Tween-20, 5% glycerol, 0.1 mg/mL BSA, 2 mM DTT; 25 C; 0.0125-409.6 nM protein
Settings: tags: N-His6-TEV cleaved; C-SNAP kept, Cy3B-labelled; label: tethered on chip by stalled RNA polymerase
// classify: if (Kd < 2 nM) TRUE else FALSE

>  <binder>
UCUCUUUCACACUUAUUAUGUCUCUU (ssRNA) [Id_ii_S1_P5E.4_K5.3_C5.2_[C-2T]_[T-1C]_H5.3_A5.1_F5.1_T5.2_[A12G]]

>  <label>
FALSE

$$$$
>  <binder>
UCUCUUUAUGUAUAUUAAUUCUCUU (ssRNA) [Id_ii_S1_P4E.2_K4.1_C4.2_[C-2T]_[T-1A]_H4.1_A4.1_F4.1_T4.2_[G10A]]

>  <label>
TRUE

$$$$
>  <binder>
Ie_S4_P3E.2_K3.1_C3.2_[+-1TT]_H3.1_A3.1_F3.1_T3.2 (ssRNA) RNA: UUUGACAACUGAUCGUUCUUUCUCUUUUGUAUAUAUAUUCUUUCUCGAUCAGUUGUCUUU

>  <label>
TRUE

$$$$
>  <binder>
UCUCUUAGUAUUAGUAUCUCUU (ssRNA) [Ib_S1_P5E.1_K5.1_C5.1_H5.1_[T1A]_A5.1_F5.1_[T8G]_T5.1]

>  <label>
FALSE

$$$$
>  <binder>
Ie_S2_P3E.2_K3.1_C3.2_H3.1_[+4CCC]_A3.1_F3.1_T3.2 (ssRNA) RNA: UUUGAUUAAUAUGAUAUCGUUCUUUCUCUUGUACCCUAUAUAUUCUUUCUCGAUAUCAUAUUAAUCUUU

>  <label>
TRUE

$$$$
>  <binder>
Ib_S4_P3E.1_K3.1_C3.1_H3.1_[G2A]_A3.1_[A6G]_F3.1_T3.1 (ssRNA) RNA: UUUGACAACUGAUCGUUCUUUCUUAUAUGUAUUCUUUCUCGAUCAGUUGUCUUU

>  <label>
FALSE

$$$$
>  <binder>
Id_i_S4_P3E.7_K3.3_C3.3_[T-3C]_[C-2A]_[T-1G]_H3.3_A3.1_F3.1_T3.2 (ssRNA) RNA: UUUGACAACUGAUCGUUCUUUCUCAGACACUAUAUAUUCUUUCUCGAUCAGUUGUCUUU

>  <label>
FALSE

$$$$
